Catalogue of LOAEL Neurons EF1α values
- Tested on: EF1α promoter
- Measurement context: ESC-derived neurons, 48 h exposure
Output spec: scalar in µM, unitless text.

Record excerpt, results attached:
Brc1ccc(Oc2cc(Br)c(Br)cc2Br)c(Br)c1
5
COC1=C2C[C@@H](C)C[C@H](OC)[C@H](O)[C@@H](C)/C=C(\C)[C@H](OC(N)=O)[C@@H](OC)/C=C\C=C(/C)C(=O)NC(=CC1=O)C2=O
0.05
CN(C)CCCN1c2ccccc2Sc2ccc(Cl)cc21
2

Turning to the following compound.
Query: Item `Cc1ccc(NC(=O)c2ccc(CN3CCN(C)CC3)cc2)cc1Nc1nccc(-c2cccnc2)n1` has what recorded LOAEL Neurons EF1α?
Result: 10
